Attribution: ChEMBL document CHEMBL1201862

System: HT-29
PROTOCOL_DESCRIPTION: NCI tumour cell line growth inhibition, 48 h
The source made the active and inactive calls. No stated cut-off is given here; in the data, active = GI50 up to about 1.1 µM and inactive = higher.
API: response.call in active, inactive

Worked cases, answers included:
| COMPOUND | ASSAY_TARGET | DISCRETE_LABEL |
| --- | --- | --- |
| CS/C(=N/C(=O)c1ccccc1)SCCS/C(=N\C(=O)c1ccccc1)SC | HT-29 | inactive |
| CCOP(=O)(OCC)C(Nc1ccc(F)cc1)c1ccccc1 (centres undefined) | HT-29 | inactive |
| C=CC(C)(C)c1cc([C@@H]2COc3cc(O)ccc3C2=O)c(O)c(OC)c1OC | HT-29 | inactive |
| CC(C)(C)C(=O)OCC(COC(=O)C(C)(C)C)[N+](=O)[O-] | HT-29 | inactive |
| CSc1[nH]nc(N)c1C(=O)Nc1ccc(Cl)cc1 | HT-29 | inactive |
| S=C1CC(c2ccccc2)Sc2cc(Cl)ccc2N1 (centres undefined) | HT-29 | inactive |

// return assay outcome for COc1ccc2c(c1OC(C)=O)C1=CC(=O)CCC13CCNC3C2 (centres undefined)
inactive

Each compound tested received a call. Report the one for CC(C)C[C@H](NC(=O)[C@@H](N)Cc1cccc2ccccc12)B(O)O .
active

What call does the record list for Nc1ncnc2c1ncn2CCOC(c1ccccc1)P(=O)(O)O (centres undefined) ?
inactive

Which outcome did this test record for the compound C/C=C/C=C/C1=NN(c2cccc(S(=O)(=O)O)c2)C2(C1)SCC(=O)N2c1nc2ccccc2s1 (centres undefined) ?
inactive

State the result this test recorded for CC1CCCc2c(CC3CC(=O)NC(=O)C3)nc(N)nc21 (centres undefined) .
inactive

Recorded test outcome, item O=[N+]([O-])c1cc(Cl)ccc1S(=O)(=O)c1ccccc1
inactive

For CC(C)(C)c1cc(/C=C(\C#N)C(=O)NCCO)cc(C(C)(C)C)c1O , what call appears in the results of this test?
inactive

Tell me the recorded outcome of this test for c1ccc(CNCCN2CCNCC2)nc1 .
inactive

What classification did Cc1c2oc3c(C)cc(F)c(C(=O)NC4C(=O)NC(C(C)C)C(=O)N5CCCC5C(=O)N(C)CC(=O)N(C)C(C(C)C)C(=O)OC4C)c3nc-2c(C(=O)NC2C(=O)NC(C(C)C)C(=O)N3CCCC3C(=O)N(C)CC(=O)N(C)C(C(C)C)C(=O)OC2C)c(N)c1=O (centres undefined) end up with in this test?
active

For this compound, state the assay outcome: C=C(C)[C@@H]1CCC2=C[C@H](OC2=O)[C@@]2(C)C[C@@H]2C2=CC(C)=C(O2)[C@H]1O
inactive

###

System: OVCAR-4
PROTOCOL_DESCRIPTION: NCI tumour cell line growth inhibition, 48 h
The source made the active and inactive calls. Rule as the data show it: active = GI50 up to about 1.1 µM and inactive = higher.
Response enum: active, inactive

Some solved cases for reference:
| MOLECULE | DISCRETE_LABEL |
| --- | --- |
| COc1cc(C2SCCCCCCCCCCSC(c3ccc(O)c(OC)c3)SCCCCCCCCCCS2)ccc1O (stereo not given) | inactive |
| CCOC(=O)c1c(C)n(Cc2ccccc2)c2c1cc(O)c1[nH]c3c(c12)CCCC3 | active |
| Oc1c(Cl)ccc2cccnc12 | inactive |

Hello, I am checking results. What call was entered for O=C1C(=O)c2cc([N+](=O)[O-])ccc2-c2ccc([N+](=O)[O-])cc21 ?
active

Called result for CCOC(=O)c1ccc(C(=O)/C(C#N)=C2\CCCN2C)[nH]1
inactive

###

Test system: MOLT-4
PROTOCOL_DESCRIPTION: NCI tumour cell line growth inhibition, 48 h
Activity calls are given as the source filed them. No stated cut-off is given here; in the data, active = GI50 up to about 1.1 µM and inactive = higher.
The reply should name one outcome from true (active), false (inactive)

| COMPOUND | DISCRETE_LABEL |
| --- | --- |
| CCOC(=O)C1CCCCN1C(=O)OCc1ccccc1 (stereo unspecified) | false |

What classification did CC(=O)c1c(N=[N+]=[N-])c2cccc3c2n(c1=O)CCC3 end up with in this test?
false

I would be grateful if you could indicate the recorded call for COc1cccc2c1CCc1cc3c(N)nc(N)nc3nc1-2 .
true

Returns: the outcome recorded for C=CC(C)(C)c1cc([C@@H]2COc3cc(O)ccc3C2=O)c(O)c(OC)c1OC in this assay.
false

Just curious, what result did CC(CC(=O)O)C(C(=O)O)C(=O)O (stereo unspecified) get here?
false

Per the records of this test, what outcome belongs to CC(CC(=O)N1C(=O)C(C)(C)[C@@H](O)[C@H]1CC(C)C(Cl)(Cl)Cl)C(Cl)(Cl)Cl (stereo partly specified) ?
false

###

System: MCF7
PROTOCOL_DESCRIPTION: NCI tumour cell line growth inhibition, 48 h
Activity calls are given as the source filed them. No stated cut-off is given here; in the data, active = GI50 up to about 1.1 µM and inactive = higher.
Reported GI50 by item:

| COMPOUND | GI50 |
| --- | --- |
| CC(C)(C)c1ccc(O)c(C(O)c2ccccn2)c1 (stereo unspecified) | 77.8 µM (inactive) |

Look at this compound and give its reported GI50. CCOC(=O)C(CCc1ncnc2c1ncn2Cc1ccccc1)(CCc1ncnc2c1ncn2Cc1ccccc1)C(=O)OCC
37.9 µM (inactive)

Look up GI50: NC(=O)c1ncn(C2OC(CO)C(O)C2O)c1NC=O (stereo unspecified)
> 100 µM (inactive)

Look up GI50 for this compound: COc1ccc(/C(=N/OCCCC(=O)O)c2cccs2)cc1
> 100 µM (inactive)

###

Test system: SF-295
PROTOCOL_DESCRIPTION: NCI tumour cell line growth inhibition, 48 h
Active and inactive are the calls of the source. Rule as the data show it: active = GI50 up to about 1.1 µM and inactive = higher.
ASSAY_ENDPOINT: GI50

Worked examples, 5 compounds total:
| COMPOUND | ASSAY_ENDPOINT | MEAS_VALUE |
| --- | --- | --- |
| Brc1ccc2[nH]cc(-c3csc(-c4ccccn4)n3)c2c1 | GI50 | 6.68 µM (inactive) |
| CC(=O)Nc1ccccc1-c1nc2ccccc2nc1-c1ccccc1 | GI50 | > 100 µM (inactive) |
| Nc1ncnc2c1ncn2CCOC(c1ccccc1)P(=O)(O)O (stereo unspecified) | GI50 | > 100 µM (inactive) |
| O=C(CC(Cl)(Cl)C(Cl)(Cl)Cl)c1ccccc1 | GI50 | 1.78 µM (inactive) |
| CC(=O)OC12c3ccccc3C1CCCCCC21OCCCO1 (stereo unspecified) | GI50 | > 100 µM (inactive) |

Look at this compound and give its reported GI50. CCOC(=O)/C(=C/Nc1c(C)n(C)n(-c2ccccc2)c1=O)C(C)=O
> 100 µM (inactive)

Endpoint output: GI50 of C=CC(C)(C)c1cc([C@@H]2COc3cc(O)ccc3C2=O)c(O)c(OC)c1OC . Value?
12.2 µM (inactive)

Record request: GI50 value, item CCOC(=O)C1CCCCN1C(=O)OCc1ccccc1 (stereo unspecified)
> 100 µM (inactive)

May I ask what GI50 has been recorded for CCOC(=O)CN1C(=O)c2cc([N+](=O)[O-])cc3cc([N+](=O)[O-])cc(c23)C1=O ?
72.3 µM (inactive)

Given the compound CCOC(=O)C(=O)/C(=C/n1c(=S)[nH]c2ccc([N+](=O)[O-])cc21)C(=O)OCC , what is its reported GI50?
> 100 µM (inactive)

###

Documented GI50 across a set of compounds
Tested on: IGROV-1
PROTOCOL_DESCRIPTION: NCI tumour cell line growth inhibition, 48 h
Active and inactive are the calls of the source. Cut-off read from the data, not from the text of the source: active = GI50 up to about 1.1 µM and inactive = higher.

Some solved entries appear below for comparison.
| COMPOUND | ASSAY_ENDPOINT | MEAS_VALUE |
| --- | --- | --- |
| Cc1cc2c(c(/C=N/c3ccc([N+](=O)[O-])cc3)c1)OC1(C=C2)Oc2ccccc2C(=O)N1C (stereo unspecified) | GI50 | 18.8 µM (inactive) |
| Cc1nccc2c1cnc1ccnn12 | GI50 | > 100 µM (inactive) |
| CCc1ccc(/C(C)=N/NC(N)=S)cc1 | GI50 | > 100 µM (inactive) |

What value of GI50 has been recorded for this entry: O=C1Nc2ccccc2/C1=N/NC(=S)NCc1ccccn1
0.0721 µM (active)

May I ask what GI50 has been recorded for COc1ccc(C(c2cc3c(cc2O)OCO3)N2CCOCC2)cc1OC (stereo unspecified) ?
14.9 µM (inactive)

I'd like to know its GI50. The compound in question is c1ccc(C2(c3ccccc3)SSC3(S2)C2CC4CC(C2)CC3C4)cc1 (stereo unspecified)
> 100 µM (inactive)

Look up GI50: COc1cc(Cc2nccc3cc(OC)c(OC)cc23)c(/N=N/N(C)C)cc1OC
13.5 µM (inactive)

// returns reported GI50 for input CC1N(C)C(=O)OC12CCN(CCCC(=O)c1ccc(F)cc1)CC2 (stereo unspecified)
> 100 µM (inactive)

Reported GI50 for CC(=O)C1C(=O)C(=O)N(c2ccc(Br)cc2)C1=O (stereo unspecified) : what is it?
> 100 µM (inactive)

GET /values?readout=GI50&item= N#Cc1c(-c2ccc(Cl)cc2)c2c(n(C3OC(CO)C(O)C(O)C3O)c1=S)CCCC2 (stereo unspecified)
59.2 µM (inactive)

Reported GI50, compound O=c1[nH]c(=O)n(C/C=C/CO)nc1Br : ____
> 100 µM (inactive)
